Kindly supply the reported Ki values for the records listed here.
- TARGET_DESC: Human CB1 receptor (hCB1) (Homo sapiens, UniProt P21554)
- Sequence (P21554 whole entry): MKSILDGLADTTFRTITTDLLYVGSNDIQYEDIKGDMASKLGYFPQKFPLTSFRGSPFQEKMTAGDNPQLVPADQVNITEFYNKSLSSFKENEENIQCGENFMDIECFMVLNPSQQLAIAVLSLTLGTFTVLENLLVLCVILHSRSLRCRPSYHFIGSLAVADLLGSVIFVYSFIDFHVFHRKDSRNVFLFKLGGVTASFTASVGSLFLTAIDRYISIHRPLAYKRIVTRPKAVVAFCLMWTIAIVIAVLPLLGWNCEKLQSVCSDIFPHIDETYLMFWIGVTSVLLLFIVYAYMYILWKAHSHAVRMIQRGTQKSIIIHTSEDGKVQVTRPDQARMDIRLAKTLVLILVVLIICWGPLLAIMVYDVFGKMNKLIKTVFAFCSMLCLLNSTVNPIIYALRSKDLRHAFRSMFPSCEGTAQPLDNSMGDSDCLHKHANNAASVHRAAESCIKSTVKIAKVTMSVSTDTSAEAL
Numbers only, in nM.

{"COMPOUND": "CCN(CC(=O)NC(C)C)C(=O)c1ccc2c(c1)c1c(n2C)CCC(C2CCOCC2)C1 (stereo not drawn)", "Ki (nM)": 31.3}
{"COMPOUND": "CN(C(=O)c1ccc2c(c1)c1c(n2C)CCC(C2CCOCC2)C1)C1(C(=O)NC2CC2)CC1 (stereo not drawn)", "Ki (nM)": 371}
{"COMPOUND": "CCN(CC(=O)N[C@H]1CCOC1)C(=O)c1ccc2c(c1)c1c(n2C)CCC(C2CCOCC2)C1 (stereo partly drawn)", "Ki (nM)": 58.1}
{"COMPOUND": "CCN(CCCCO)C(=O)c1ccc2c(c1)c1c(n2C)CCC(C2CCOCC2)C1 (stereo not drawn)", "Ki (nM)": 72.3}
{"COMPOUND": "CC(C)C(=O)NC1CCCN(C(=O)c2ccc3c(c2)c2c(n3C)CCC(C3CCOCC3)C2)C1 (stereo not drawn)", "Ki (nM)": 157}
{"COMPOUND": "CCN(CC(=O)NCCF)C(=O)c1ccc2c(c1)c1c(n2S(=O)(=O)CC)CCC(C2CCOCC2)C1 (stereo not drawn)", "Ki (nM)": 12.9}
{"COMPOUND": "CCN(CC(=O)NCCC#N)C(=O)c1ccc2c(c1)c1c(n2S(=O)(=O)CC)CCC(C2CCOCC2)C1 (stereo not drawn)", "Ki (nM)": 115}
{"COMPOUND": "CN(CCN(C)C(=O)c1ccc2c(c1)c1c(n2C)CCC(C2CCOCC2)C1)C(=O)NC1CC1 (stereo not drawn)", "Ki (nM)": 77.5}
{"COMPOUND": "CCS(=O)(=O)n1c2c(c3cc(C(=O)N4CCC(O)CC4)ccc31)CC(C1CCOCC1)CC2 (stereo not drawn)", "Ki (nM)": 155}
{"COMPOUND": "CCN(CC(=O)NCC(F)(F)F)C(=O)c1ccc2c(c1)c1c(n2S(=O)(=O)CC)CCC(C2CCOCC2)C1 (stereo not drawn)", "Ki (nM)": 25.1}

Hey, can you go through the list below and give me Ki for every item?
1. CCN(CC(=O)NC1COC1)C(=O)c1ccc2c(c1)c1c(n2C)CCC(C2CCOCC2)C1 (stereo not drawn)
2. Cn1c2c(c3cc(C(=O)N4CC(C(=O)NC5CC5)C4)ccc31)CC(C1CCOCC1)CC2 (stereo not drawn)
3. Cn1c2c(c3cc(C(=O)N4CCC(C(=O)NC5CC5)CC4)ccc31)CC(C1CCOCC1)CC2 (stereo not drawn)

Reply:
[63, 107, 118]

----------
Kindly supply the reported Emax values for the records listed here.
- TARGET_DESC: Human CB1 receptor (hCB1) (Homo sapiens)
- Construct: purchased Receptor Biology
- MEASUREMENT_NOTES: hCB1 GTPγS binding
- Assay type: biochemical
- SETTINGS: maximal stimulated binding determined with 10 μM Win 55,212-2
One number for each entry, in %.

{"COMPOUND": "CCN(CCCC(=O)NCCF)C(=O)c1ccc2c(c1)c1c(n2C)CCC(C2CCOCC2)C1 (stereo not drawn)", "DATA_VALUE": 135}
{"COMPOUND": "Cn1c2c(c3cc(C(=O)N4CC[C@H](NC(=O)C5CC5)C4)ccc31)CC(C1CCOCC1)CC2 (stereo partly drawn)", "DATA_VALUE": 116}
{"COMPOUND": "CC(C)NC(=O)CC[C@@H](CO)N(C)C(=O)c1ccc2c(c1)c1c(n2C)CC[C@@H](C2CCOCC2)C1", "DATA_VALUE": 129}
{"COMPOUND": "CCC(=O)NC1CCCN(C(=O)c2ccc3c(c2)c2c(n3C)CCC(C3CCOCC3)C2)C1 (stereo not drawn)", "DATA_VALUE": 122}
{"COMPOUND": "CCN(CC(=O)NCCCF)C(=O)c1ccc2c(c1)c1c(n2S(=O)(=O)CC)CCC(C2CCOCC2)C1 (stereo not drawn)", "DATA_VALUE": 120}

Hey, can you go through the list below and give me Emax for every item?
1. CCN(CC(=O)NC)C(=O)c1ccc2c(c1)c1c(n2C)CCC(C2CCOCC2)C1 (stereo not drawn)
2. Cn1c2c(c3cc(C(=O)N4CC[C@H](C(=O)NCCF)C4)ccc31)CC(C1CCOCC1)CC2 (stereo partly drawn)
3. COCCNC(=O)CCCN(C)C(=O)c1ccc2c(c1)c1c(n2C)CC[C@@H](C2CCOCC2)C1
4. CCN(CC(=O)N[C@H]1CCOC1)C(=O)c1ccc2c(c1)c1c(n2C)CCC(C2CCOCC2)C1 (stereo partly drawn)
5. CN(CCCC(=O)NCCO)C(=O)c1ccc2c(c1)c1c(n2C)CC[C@@H](C2CCOCC2)C1

Reply:
1. 116
2. 119
3. 93
4. 122
5. 120
